Assay: Aqueous solubility of perampanel without solubilizer
Assay type: physicochemical
Conditions: water without solubilizer, aqueous buffer; pH 7, ambient room temperature
quantity_measured: solubility

So, `N#Cc1ccccc1-c1cc(-c2ccccn2)cn(-c2ccccc2)c1=O` ? Its solubility was ~1 µg/mL

====

Experiment: pH-solubility of perampanel in SBE-β-CD solutions
Assay type: physicochemical
Details: 3% SBE-β-CD solution, aqueous with cosolvent or surfactant or cyclodextrin; 3% SBE-β-CD, pH 7
quantity_measured: solubility (µg/mL)
Use µg/mL as the unit, but write only the number.

Form field solubility, entry N#Cc1ccccc1-c1cc(-c2ccccn2)cn(-c2ccccc2)c1=O [perampanel] : 30

====

Test: pH-solubility of perampanel in SBE-β-CD solutions
Format: physicochemical
Details: 9.5% SBE-β-CD solution, aqueous with cosolvent or surfactant or cyclodextrin; 9.5% SBE-β-CD, pH 5
quantity_measured: solubility
Express your answer as a number followed by its unit.

Lab note: measured solubility of `N#Cc1ccccc1-c1cc(-c2ccccn2)cn(-c2ccccc2)c1=O` was 80 µg/mL
